src = patent US12383498B2

Measurement description: Soluble amlodipine in isolated solids (purified water, pH 5.3, tumbled 66 hours, HPLC)
Assay type: physicochemical
Condition: pH 5.3, aqueous buffer, thermodynamic from solid, Tube 1, pH adjusted to 5.3, ambient temperature

Compound: CCOC(=O)C1=C(COCCN)NC(C)=C(C(=O)OC)C1c1ccccc1Cl (stereo not shown) [Control, Amlodipine besylate]
solubility at 66 h, µg/mL: 1080

---

Measurement description: Soluble amlodipine in isolated solids (purified water, pH 5.3, tumbled 66 hours, HPLC)
Assay type: physicochemical
Condition: pH 5.3, aqueous buffer, thermodynamic from solid, Tube 2, pH adjusted to 5.3, ambient temperature
Measurement label: solubility at 66 h

Molecule: CCOC(=O)C1=C(COCCN)NC(C)=C(C(=O)OC)C1c1ccccc1Cl (stereo not shown) [Control, Amlodipine besylate]
Measurement label: solubility at 66 h
Result: 1080 µg/mL
